System: K4 kissing-loop RNA reporter;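 note: bound reporter read as fluorescence of individual clusters on recovered sequencing chips by microscopy, with normalized cluster intensities fitted with a binding model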
Experiment Summary: apparent KD of K4 kissing-loop reporter; higher = weaker reporter binding
Assay Conditions: Eterna round: R107; input ligand: tryptophan 2.4 mM
Classify as follows. Reported apparent KD of K4 kissing-loop reporter greater than or equal to 500 nM: Yes. Reported apparent KD of K4 kissing-loop reporter below: No.

Sequence Code: GUCAUCAGAUCGCAAGAUCUGAUAGCCGAUACCAGCGCGAAGGUGCGCCCUUGGCAGCGGCACCGAGUGAUGUUCGGUCAGACGG [#2 Same State - Theophylline A Attempt #4 (HarryS)]
Answer Label: Yes
--
Sequence Code: AUUUUUUUGUCAGGAUAUUAGUGUGGGUUUGGUUUGUUAGUGAUGUUGAUAUUUGGUUUAUGUAUUUAAGAAGGGAUUUAGCGGU [frrvemullin]
Answer Label: No
--
Sequence Code: GCCGCAAGGCUAGCAGCAAUAGGCGCUCGCUAGGAUAUCUGGAAACAGAGAAGGAGCUGGAGUGAUGUUUUACCUCCUUGUUAUU
Answer Label: Yes
--
Sequence Code: ACCCAAGCCCAUCGCGCAGUGAUGUUGUCGCGAGGACCGGUACGGCCGCCACUCGAUAGCAGUGGCAACGUCAUCAUAAUCGAUU [theeternabot_exclusion_KL_Trp_A_50]
Answer Label: Yes
--
Sequence Code: GCCGUAGAUGGAAGGAGCGUGGUGGACUCGUGAAGUGAUGUUUCAAGUCGAUAUGCCCAACCACAGGUAGGUCGCCAUCUACGGC
Answer Label: No
--
Sequence Code: AAAAUAAACCAGUGAUGUUGGUAACCAGAUACCAGCGACGAAAGUCGCCCUUGGCAGCUGUGGACGUACAAAAUAAGUACGUCCU
Answer Label: No
--
Sequence Code: UGGAGUUGACGAAAAGUCAACUCCUGAGAUACCAGUGACGAAAGUCACCCUUGGCAGCUCACUGCCAGUGAUGUUGGAACUAAAG [#02 K4 Theophylline A Same State]
Answer Label: No
--
Sequence Code: AAUUAAUGUAUAGAUUAUAUACAUUAAUCAGAGGAUAUGCAUUGUUGCAGAAGGCUGAAUGCAGUGAUGUUGCAAUGGAAAUUUA [JR_SSFMNA_Sub004]
Answer Label: No
--
Sequence Code: UGUGAACAAAAGUAGAGUGGACCACUAUAGCGAGGACCGGUACGGCCGCCACUCGUAUAUAAAUUCAGUGAUGUUGAAAAGAGCU [Exclusion Tryptophan A GF1]
Answer Label: No
--
Sequence Code: GUUACGCAUGGAAGGAGCGCAUGCUCAACAAUAAGCUCAGUGAUGUUGAGCAAAAUUAAAAUGCAGGUAGGUCGCCAUGUGUAAC [Ex Arginine B K4 28]
Answer Label: Yes
--
Sequence Code: AGGCCCGGCCGAAAGGCCGGGCCAAGAGAUACCAGCAGCGAAAGCUGCCCUUGGCAGCUCACUUAGUGAUGUUAAGAAUAGAACA [SS Theo A Tesla 1]
Answer Label: No

###

System: MS2 coat protein
Experiment Summary: apparent KD of MS2 coat protein; designed switch direction (-1 OFF switch, 1 ON switch): -1; higher = weaker reporter binding
Assay Conditions: input ligand: FMN 200 uM
Measured Attribute: apparent KD of MS2 coat protein

Sequence Code: ACCUCACUUGAGGAUCACCCAAGUCAGGAUAUACUCGUUUGCCACAAAACGCGGCAUUGUAGAAGGGACGGGCU [Esusso] (Eterna round: R97, puzzle: Exclusion 1)
Measured Attribute: apparent KD of MS2 coat protein
Observed Measurement: 30 nM
//
Sequence Code: AACUGGACAGGAUAUGUUCUUGAGCACUUGAGGAUCACCCAAGUCAUCAAGAACUCAGGCACAGAAGGGUUUAUGA [jl-ex5.4.60 ViennaUCT mod] (Eterna round: R97, puzzle: Exclusion 5)
Measured Attribute: apparent KD of MS2 coat protein
Observed Measurement: 28.9 nM
//
Sequence Code: CGCCCGGGAGGAUAUCCAAUAUAUGACAUGAGGAUCACCCAUGUUUCCACUCGUACCUCCGGAGAAGGCCCGGCGA [Ex5 #28] (Eterna round: R97, puzzle: Exclusion 5)
Measured Attribute: apparent KD of MS2 coat protein
Observed Measurement: 20.2 nM
//
Sequence Code: GCCGGAUAAGUGAGGAUAUACCUAUGGAUACAUAGGUAGAAGGCACAUGAGGAUCACCCAUGUUCCUCUCCGGC [JL-BMX4-4.17 Eli mod] (Eterna round: R97, puzzle: Brourd's mod of Exclusion 4)
Measured Attribute: apparent KD of MS2 coat protein
Observed Measurement: 406 nM
//
Sequence Code: CUAGCUUCGGCUAGUACAAGCUUUUUGCUCGUCUUAUUAACAUGAGGAUCACCCAUGUUAAUGAGACCUCAUGUAUU [Sensor v3 - turn-off variant 2 - 9] (Eterna round: R96, puzzle: Sensor v3, turn-off variant 2)
Measured Attribute: apparent KD of MS2 coat protein
Observed Measurement: 11.5 nM
//
Sequence Code: AUUAUACAUGAGGAUCACCCAUGUGAGGAUAUCCGCAGCACAGGCAGAGUCGGUUGCAGGAGAAGGCACUCCUC [Eternabot (L1) Solution 57] (Eterna round: R97, puzzle: Exclusion 1)
Measured Attribute: apparent KD of MS2 coat protein
Observed Measurement: 72.5 nM
//
Sequence Code: GGAUUACAUGAGGAUCACCCAUGUCAGGAUAUGAAAGCAUAUGCCGAAAGGCAUAUGCGCAGAAGGGACAAUAU [AK-MS2ROC-r4-exclusion1-3.0] (Eterna round: R97, puzzle: Exclusion 1)
Measured Attribute: apparent KD of MS2 coat protein
Observed Measurement: 45.7 nM
//
Sequence Code: AUAAAUCAUGUAGGAUAUGCGUGGCGAAGCUAUGCAGAAGGACAUGAGGAUCACCCAUGUCUUUCCGUCUGCGUACAGACGGAA [Mat - Exclusion NG 1 - Mod of JL - D41] (Eterna round: R96, puzzle: Exclusion NG 1)
Measured Attribute: apparent KD of MS2 coat protein
Observed Measurement: 289 nM
//
Sequence Code: UAUUAACAAGCGAGAUCCCACAUGAGGAUCACCCAUGUGCUCGUCUUAUAAGGUACUGUGACGAUAGUCACGGUACC [Mat - Sensor, turn-off var - Eli Mod - D3] (Eterna round: R97, puzzle: Sensor, turn-off variant 1)
Measured Attribute: apparent KD of MS2 coat protein
Observed Measurement: 14.5 nM
//
Sequence Code: ACGAUUGUAGGAUAUACUUGGAGAGUGUUCACAUAUUAACGACAUGAGGAUCACCCAUGUAGAAGGGCAAUCGG [Eternabot (L1) Solution 22] (Eterna round: R97, puzzle: Exclusion 2)
Measured Attribute: apparent KD of MS2 coat protein
Observed Measurement: 174 nM
//
Sequence Code: UAUUAGCAAGCAACUGGGUACAUGAGGAUCACCCAUGUGCUCGUCUUAUAAGGUACUGUGACGAAAUUCACGGUACC [mod--Eli13] (Eterna round: R97, puzzle: Sensor, turn-off variant 1)
Measured Attribute: apparent KD of MS2 coat protein
Observed Measurement: 21.1 nM
//
Sequence Code: AUAGGCCGAGGAUAUGUAGCUAUGAACAUGAGGAUCACCCAUGUGAGUGUCGUGCGUAUUAUAGAAGGCGGUGCAU [EX5 B.14] (Eterna round: R97, puzzle: Exclusion 5)
Measured Attribute: apparent KD of MS2 coat protein
Observed Measurement: 17 nM
//
Sequence Code: CAGUACUGAGGAUAUACAUGAGGAUCACCCAUGUGCACCAGCUAGGAUACUAGCAAAAGUAGAAGGCAGUACUG [Mat - Exclusion 3 - Eli Mod - D19] (Eterna round: R97, puzzle: Exclusion 3)
Measured Attribute: apparent KD of MS2 coat protein
Observed Measurement: 118 nM
//
Sequence Code: CGUCAGUCAGGAUAUGCAUACGUAGACAUGAGGAUCACCCAUGUGACGUGGGACUGGUGUGUAGAAGGGACGAACA [EX5 #78] (Eterna round: R97, puzzle: Exclusion 5)
Measured Attribute: apparent KD of MS2 coat protein
Observed Measurement: 23.1 nM
//
Sequence Code: AAGCACGCGUAGGAUAUAAUCCAAACCUCGAGGUUAGAAGGACGCACAUGAGGAUCACCCAUGUUCCUAGCAUC [Eternabot (Original) Solution 19] (Eterna round: R97, puzzle: Exclusion 6)
Measured Attribute: apparent KD of MS2 coat protein
Observed Measurement: 20.7 nM
//
Sequence Code: GGUGGGCUAGGAUAUGCUUUGGGAAAGCAUUCCUUCGAUAAACUUGAGGAUCACCCAAGUAGAAGGAGCUUGCC [salish99_ex2_r4_020] (Eterna round: R97, puzzle: Exclusion 2)
Measured Attribute: apparent KD of MS2 coat protein
Observed Measurement: 16.4 nM
//
Sequence Code: UGAUCAGACCGAGGAUAUACAGGGAGGACGCACGUGAGUGCGUCCACUACAUGAGGAUCACCCAUGUAGAAGGCGGUCUGAUCU [JL ENG2 1.99] (Eterna round: R96, puzzle: Exclusion NG 2)
Measured Attribute: apparent KD of MS2 coat protein
Observed Measurement: 319 nM
//
Sequence Code: UGUUGUUACGUAGGAUAUCCACCAACAGGUGGAAGGAUAUGUACGCAGAAGGUUCGCCAACAGGCGGAGAAGGACGUGUUAACA [pwkr exNG2 2xF7 2xFMN.28] (Eterna round: R96, puzzle: Exclusion NG 2)
Measured Attribute: apparent KD of MS2 coat protein
Observed Measurement: 675 nM
